Hello, the source for this data is BindingDB's records for doi:10.1016/j.bmc.2010.03.038, in case you need it.

- Study target: Voltage-dependent L-type calcium channel subunit alpha-1C (Oryctolagus cuniculus, UniProt P15381)
- Sequence (P15381 whole entry): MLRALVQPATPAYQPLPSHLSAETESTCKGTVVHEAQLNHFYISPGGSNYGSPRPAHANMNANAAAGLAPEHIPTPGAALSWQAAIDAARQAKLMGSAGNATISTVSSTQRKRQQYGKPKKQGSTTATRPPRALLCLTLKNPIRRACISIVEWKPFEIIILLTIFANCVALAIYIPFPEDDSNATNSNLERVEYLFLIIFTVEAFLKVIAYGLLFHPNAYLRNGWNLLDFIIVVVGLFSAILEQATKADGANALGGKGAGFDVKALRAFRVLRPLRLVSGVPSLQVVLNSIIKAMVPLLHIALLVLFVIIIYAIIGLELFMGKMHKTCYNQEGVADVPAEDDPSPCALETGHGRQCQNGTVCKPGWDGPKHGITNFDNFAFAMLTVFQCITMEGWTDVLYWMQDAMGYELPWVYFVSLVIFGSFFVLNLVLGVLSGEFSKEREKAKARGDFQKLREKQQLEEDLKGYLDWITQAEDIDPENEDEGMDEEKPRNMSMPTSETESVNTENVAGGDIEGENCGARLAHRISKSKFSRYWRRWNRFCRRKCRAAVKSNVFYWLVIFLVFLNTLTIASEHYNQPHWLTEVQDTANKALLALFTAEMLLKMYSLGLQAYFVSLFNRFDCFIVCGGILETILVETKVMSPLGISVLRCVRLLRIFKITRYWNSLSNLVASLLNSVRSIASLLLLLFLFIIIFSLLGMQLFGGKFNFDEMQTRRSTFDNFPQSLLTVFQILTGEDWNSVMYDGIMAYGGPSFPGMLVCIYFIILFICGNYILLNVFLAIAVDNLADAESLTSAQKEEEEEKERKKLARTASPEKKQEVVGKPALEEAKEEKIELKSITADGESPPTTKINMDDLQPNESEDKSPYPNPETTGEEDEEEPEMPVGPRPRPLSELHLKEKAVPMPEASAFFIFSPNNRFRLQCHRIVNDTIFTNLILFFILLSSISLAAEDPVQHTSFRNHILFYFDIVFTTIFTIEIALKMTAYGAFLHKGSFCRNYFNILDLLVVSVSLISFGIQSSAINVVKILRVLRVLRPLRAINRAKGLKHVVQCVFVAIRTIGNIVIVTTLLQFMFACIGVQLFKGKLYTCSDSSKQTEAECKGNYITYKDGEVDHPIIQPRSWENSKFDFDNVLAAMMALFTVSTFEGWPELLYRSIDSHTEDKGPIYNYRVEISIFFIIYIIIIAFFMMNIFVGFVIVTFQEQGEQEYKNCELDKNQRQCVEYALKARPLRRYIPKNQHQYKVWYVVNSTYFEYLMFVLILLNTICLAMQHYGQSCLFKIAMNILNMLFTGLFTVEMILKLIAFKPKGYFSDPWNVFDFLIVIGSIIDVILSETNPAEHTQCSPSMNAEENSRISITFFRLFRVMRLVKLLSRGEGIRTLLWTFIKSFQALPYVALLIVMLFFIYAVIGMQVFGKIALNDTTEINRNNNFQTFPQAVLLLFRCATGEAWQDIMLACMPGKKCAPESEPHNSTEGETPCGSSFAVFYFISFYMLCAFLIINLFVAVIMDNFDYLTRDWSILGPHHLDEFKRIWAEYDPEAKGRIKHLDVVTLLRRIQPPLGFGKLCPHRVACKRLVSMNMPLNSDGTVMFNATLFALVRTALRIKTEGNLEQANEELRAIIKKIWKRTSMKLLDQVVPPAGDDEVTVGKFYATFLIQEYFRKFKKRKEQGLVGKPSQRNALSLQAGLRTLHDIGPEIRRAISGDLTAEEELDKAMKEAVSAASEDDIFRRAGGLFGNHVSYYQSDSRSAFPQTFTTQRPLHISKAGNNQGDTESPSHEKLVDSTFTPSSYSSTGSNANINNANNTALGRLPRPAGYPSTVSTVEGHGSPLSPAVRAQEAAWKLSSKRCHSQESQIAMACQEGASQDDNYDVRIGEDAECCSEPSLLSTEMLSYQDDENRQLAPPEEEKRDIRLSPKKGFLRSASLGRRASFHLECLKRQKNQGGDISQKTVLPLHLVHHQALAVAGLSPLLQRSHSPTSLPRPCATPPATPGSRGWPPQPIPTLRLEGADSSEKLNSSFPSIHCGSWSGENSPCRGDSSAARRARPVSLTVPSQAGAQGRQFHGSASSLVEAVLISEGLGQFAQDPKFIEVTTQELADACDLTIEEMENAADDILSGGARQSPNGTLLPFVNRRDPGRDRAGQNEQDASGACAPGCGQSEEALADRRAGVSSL
- Test description: Antagonist activity at rabbit Cav1.2 expressed in HEK293 cells assessed as inhibition of voltage pulse-induced calcium current by FLIPR calcium 4 assay
Give measured IC50 for each item. Keep answers brief.
# unit: nM | format: bare number

Challenge: Need IC50, item COC(=O)C1C(C)=NC(C)=C(C(=O)OCc2ccccc2)C1c1cccc([N+](=O)[O-])c1 (centres undefined)
Response given: 25

Challenge: Need IC50, item C=C(C)C(=O)OCCOC(=O)C1=C(C)N=C(C)C(C(=O)OCC)C1c1cccc([N+](=O)[O-])c1 (centres undefined)
Response given: 10

Challenge: Need IC50, item C=CCOC(=O)C1=C(C)N=C(C)C(C(=O)OCC)C1c1cccc([N+](=O)[O-])c1 (centres undefined)
Response given: 25

Challenge: Need IC50, item COC(=O)C1C(C)=NC(C)=C(C(=O)OC2C=CCCC2)C1c1cccc([N+](=O)[O-])c1 (centres undefined)
Response given: 10
